Hey, just so you know, these numbers are from patent US10100114B2.

- target_under_test: T1, human Trop-2-hFc (Homo sapiens, UniProt P09758)
- T1 construct: Monomeric Trop-2 extracellular domain prepared from papain digestion of Trop-2-Fc fusion protein
- T1 sequence (P09758 27-274 limits assumed): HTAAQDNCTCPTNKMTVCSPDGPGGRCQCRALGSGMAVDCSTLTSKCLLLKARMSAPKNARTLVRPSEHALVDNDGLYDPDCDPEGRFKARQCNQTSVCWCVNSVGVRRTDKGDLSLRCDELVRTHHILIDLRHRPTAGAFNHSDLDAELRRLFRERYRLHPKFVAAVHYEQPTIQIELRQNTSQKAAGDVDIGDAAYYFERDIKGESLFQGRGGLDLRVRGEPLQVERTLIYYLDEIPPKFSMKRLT
- assay_name: Biacore SPR affinity of chimeric and humanized 7E6 Fab, human Trop-2
- Format: binding
- experimental_setup: recombinant Fab fragments injected over captured human Trop-2-hFc
measured_attribute: ka (M⁻¹ s⁻¹)
Give the value in M⁻¹ s⁻¹ but do not write M⁻¹ s⁻¹ after it.

| molecule | ka (M⁻¹ s⁻¹) |
| --- | --- |
| h7E6: humanized anti-Trop-2 antibody, VL SEQ ID NO: 3, VH SEQ ID NO: 4 (antibody, V domains shown) VH: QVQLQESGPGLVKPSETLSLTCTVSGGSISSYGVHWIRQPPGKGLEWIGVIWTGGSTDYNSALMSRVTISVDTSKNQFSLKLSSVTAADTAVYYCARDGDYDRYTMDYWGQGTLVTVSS VL: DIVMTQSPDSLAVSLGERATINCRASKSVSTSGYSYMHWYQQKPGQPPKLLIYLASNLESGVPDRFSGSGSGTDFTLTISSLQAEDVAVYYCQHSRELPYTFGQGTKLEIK | 139000 |

With those in mind, consider the next molecule.
Which ka is listed for h7E6_L: humanized anti-Trop-2 antibody comprising SEQ ID NOs: 4 and 6 (antibody, V domains shown) VH: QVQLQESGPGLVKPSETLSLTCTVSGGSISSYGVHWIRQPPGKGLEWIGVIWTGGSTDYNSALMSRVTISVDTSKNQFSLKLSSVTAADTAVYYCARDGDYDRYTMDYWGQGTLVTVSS VL: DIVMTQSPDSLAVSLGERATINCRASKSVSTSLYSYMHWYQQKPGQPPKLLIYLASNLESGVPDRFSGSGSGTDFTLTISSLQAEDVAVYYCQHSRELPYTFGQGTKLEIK ?
130000
